These data points were gathered from the supplement of paper PMC7125110.

B1: glmS ribozyme (parent)
chain: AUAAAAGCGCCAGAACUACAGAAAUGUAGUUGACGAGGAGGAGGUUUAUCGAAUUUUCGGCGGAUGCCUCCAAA

- Variants of: B1
- assayNotes: self-cleavage kobs at 10000 uM GlcN6P; higher = faster cleavage; RNA array
- measurementContext: with glucosamine-6-phosphate
Fewer inactive variants are shown than the library holds.
Reported self-cleavage kobs at 10000 uM GlcN6P is given for each of the following variants.

change	unitAbbreviation	self-cleavage kobs at 10000 uM GlcN6P
U30C A53G	s⁻¹	0.000328
A12G C50U A52G U69G C71A	s⁻¹	3.23e-05
A12U A14G A52G	s⁻¹	0.00726
A15C A33C	s⁻¹	5.37e-05
A14U A15G G41U	s⁻¹	0.000237
A15C U30A A48U	s⁻¹	5.4e-05
A14U G41C C70G	s⁻¹	0.0658
A42U U55A	s⁻¹	0.000188
A6G C8U U54G C68G	s⁻¹	7.88e-05
U56A C67A	s⁻¹	0.00678
G41C A64G	s⁻¹	0.000122
A15U U46C	s⁻¹	0.000288
C10U A33U U54C	s⁻¹	3.5e-05
A36C U69A C70U	s⁻¹	6.82e-05
C16G A48C	s⁻¹	4.28e-05
U54C U55C	s⁻¹	0.0111
G29A G41A	s⁻¹	5.78e-05
U45C U56G	s⁻¹	0.00156
A12U G44U	s⁻¹	0.000739
A14U U56A	s⁻¹	0.00407
A12G U56G C70G	s⁻¹	7.52e-05
A12U U31C U47G	s⁻¹	0.00156
G35A C50U	s⁻¹	4.87e-05
C8U C50A G51A U69G	s⁻¹	0.000709
G29U G41A	s⁻¹	0.000164
A14G U54A	s⁻¹	0.103
A42C C67G	s⁻¹	6.4e-05
C11A C67G	s⁻¹	5.65e-05
G40A U46A	s⁻¹	0.000495
G29C U65A	s⁻¹	0.000157
G59U	s⁻¹	5.11e-05
C11U U45G U55A C67G C68A	s⁻¹	5.91e-05
C16G C71A	s⁻¹	0.000465
U30A A39G	s⁻¹	0.0319
C11G C50U C61U C70G	s⁻¹	3.43e-05
U31G U69A	s⁻¹	0.000103
A6U A15G	s⁻¹	0.000441
G40C A42U	s⁻¹	3.64e-05
U57A G66A	s⁻¹	0.00012
G37A U45G	s⁻¹	0.00132
C11G U47G C50A C70G	s⁻¹	7.52e-05
C70U C71A	s⁻¹	0.000247
A14U U47G	s⁻¹	0.00132
C50A A53G	s⁻¹	2.62e-05
